B1: library; numbered along this chain (parent)
chain: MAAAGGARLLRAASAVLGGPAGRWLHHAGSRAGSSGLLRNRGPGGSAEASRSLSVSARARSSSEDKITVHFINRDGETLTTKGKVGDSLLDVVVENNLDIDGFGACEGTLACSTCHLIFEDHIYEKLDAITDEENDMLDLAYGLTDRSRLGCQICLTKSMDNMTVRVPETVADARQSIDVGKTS

- Variants of: B1
- experimental_details: scaled log2 fold change in cell abundance, elesclomol vs control (0 = silent mean, 1 = nonsense mean) (scaled log2 ratio); higher = higher viability under elesclomol (loss of FDX1 cuproptosis function);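 note: variant abundance is its share of total variant reads in each endpoint sample, from next-generation sequencing of the integrated ORF PCR-amplified out of genomic DNA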
- condition_notes: with ABC1 FDX1 KO; elesclomol 5 nM; glucose 10 mM; 14 days
# key: entry, value: scaled log2 fold change
Provide a numeric answer; units are not to be included.

| variant_code | observed_property | measured_value |
| --- | --- | --- |
| R166W | scaled log2 fold change | -0.00581 |
| K84S | scaled log2 fold change | 0.112 |
| I118L | scaled log2 fold change | 0.0425 |
| Q153S | scaled log2 fold change | 0.243 |
| D75I | scaled log2 fold change | -0.502 |

Input line: Would you kindly share the measured scaled log2 fold change for R60N ?
Output line: -0.096

Input line: Would you kindly share the measured scaled log2 fold change for T114D ?
Output line: 0.795
